# Tested on: U2OS
# Measurement description: Multiplex assay against U2OS
# Type: toxicity, cell-based
# Cond: human, 48 h, 1 µM, compound concentration 1 uM, replicate 2
Would you mind telling me the reported Population Hoechst High Intensity Objects (%) of each entry?
Numbers only, in %.

{"Smiles": "N#CCNC(=O)c1ccc(-c2ccnc(Nc3ccc(N4CCOCC4)cc3)n2)cc1", "Recorded number": 2}

Hi, could you look up Population Hoechst High Intensity Objects (%) for each item in my list?
1. CN(c1cc(C(F)(F)F)nc(OCCC(=O)O)n1)c1cccc2c1CCC2
2. Cl.NC[C@@H]1O[C@H](C23CC4CC(CC(C4)C2)C3)Cc2c1ccc(O)c2O
3. CC(C)c1cc(Nc2nc(N3CCC[C@H](N)C3)ncc2C(N)=O)cc(C(C)C)n1
4. Oc1cccc(-c2nc(N3CCOCC3)c3oc4ncccc4c3n2)c1

1: 6; 2: 3; 3: 3; 4: 4

---

# System: U2OS
# Measurement description: Multiplex assay against U2OS
# Type: toxicity, cell-based
# Cond: human, 24 h, 10 µM, compound concentration 10 uM, replicate 2
Endpoint: Population Normal (%)
Numbers only, in %.

Hi, could you look up Population Normal (%) for each item in my list?
1. Oc1cccc(-c2nc(N3CCOCC3)c3oc4ncccc4c3n2)c1 [PI-103]
2. CC[C@@H]1C(=O)N(C)c2cnc(Nc3ccc(C(=O)NC4CCN(C)CC4)cc3OC)nc2N1C1CCCC1 [BI-2536]
3. N#CCNC(=O)c1ccc(-c2ccnc(Nc3ccc(N4CCOCC4)cc3)n2)cc1 [MOMELOTINIB]

1: 95; 2: 89; 3: 94

Indicate its recorded Population Normal (%); the molecule in question is CCCc1cc(C)[nH]c(=O)c1CNC(=O)c1cc(-c2ccc(N3CCN(C(C)C)CC3)nc2)cc2c1cnn2C(C)C
90

---

Would you mind telling me the reported Population Hoechst High Intensity Objects (%) of each entry?
# System: HEK-293T
# Measurement description: Multiplex assay against HEK293T
# Type: toxicity, cell-based
# Cond: human, 24 h, 10 µM, compound concentration 10 uM, replicate 2
Phrase the answer as number then unit, nothing more needed.

See these solved cases before continuing.
{"Compound": "COc1cc(C)c(Sc2cnc(NC(=O)c3ccc(CNC(C)C(C)(C)C)cc3)s2)cc1C(=O)N1CCN(C(C)=O)CC1 (stereo not given)", "Result": "3%"}
{"Compound": "CC(/C=C1\\SC(=S)N(CCCC(=O)Nc2ccc(C(=O)O)c(O)c2)C1=O)=C\\c1ccccc1", "Result": "1%"}
{"Compound": "C=CC(=O)Nc1cc(-n2c(=O)ccc3cnc4ccc(-c5ccc(NS(C)(=O)=O)cc5)cc4c32)ccc1C", "Result": "2%"}
{"Compound": "CC(C)c1cc(Nc2nc(N3CCC[C@H](N)C3)ncc2C(N)=O)cc(C(C)C)n1", "Result": "8%"}
{"Compound": "Cc1c(P(=S)(c2ccccc2)c2ccccc2)n2ccccc2[n+]1C/C=C/c1ccccc1.[Br-]", "Result": "13%"}
{"Compound": "Cl.Cn1c2c(c3ccc(Cl)c(Cl)c31)C(C#N)C1(CCNCC1)NC2=O (stereo not given)", "Result": "9%"}
{"Compound": "CC[C@@]1(O)C(=O)OCc2c1cc1n(c2=O)Cc2cc3ccccc3nc2-1", "Result": "4%"}
{"Compound": "Oc1cccc(-c2nc(N3CCOCC3)c3oc4ncccc4c3n2)c1", "Result": "16%"}

Hi, could you look up Population Hoechst High Intensity Objects (%) for each item in my list?
1. NC(=O)c1ccc2nc(-c3ccc(C4(N)CCC4)cc3)c(-c3ccccc3)n2n1
2. CCOC(=O)CCNc1cc(N2CCc3ccccc3CC2)nc(-c2ccccn2)n1
3. CCCCCNC(=N)N/N=C/c1c[nH]c2ccc(OC)cc12.O=C(O)/C=C\C(=O)O [TEGASEROD MALEATE]
4. C[C@@H](Oc1cc(-n2cnc3ccc(CN4CCN(C)CC4)cc32)sc1C(N)=O)c1ccccc1C(F)(F)F
5. Cc1ccc(S(=O)(=O)NC2c3ccccc3Oc3ccccc32)cc1
6. N#CCNC(=O)c1ccc(-c2ccnc(Nc3ccc(N4CCOCC4)cc3)n2)cc1
7. COc1ccccc1-c1cc(Nc2cccc(CS(N)(=O)=O)c2)ncn1
8. Cc1c(Nc2ccc(S(=O)(=O)N3CCN(C)CC3)cc2F)nc2ccc(Nc3cnn(C4CC4)c3)cn2c1=O

1. 3%
2. 8%
3. 13%
4. 5%
5. 3%
6. 4%
7. 3%
8. 3%

Hi, could you look up Population Hoechst High Intensity Objects (%) for each item in my list?
1. CCOc1ccn(-c2ccc(F)cc2)c(=O)c1C(=O)Nc1ccc(Oc2ccnc(N)c2Cl)c(F)c1
2. N#Cc1cccc(C(=O)Nc2cc(-c3ccccc3)nn2-c2ccccc2)c1
3. CC[C@@H]1C(=O)N(C)c2cnc(Nc3ccc(C(=O)NC4CCN(C)CC4)cc3OC)nc2N1C1CCCC1
4. Cc1ccc(NC(=O)Nc2cc(C(F)(F)F)ccc2F)cc1Nc1ccc2c(c1)NC(=O)/C2=C\c1ccc[nH]1

1: 2%; 2: 4%; 3: 3%; 4: 3%

This collection of values is drawn from ChEMBL document CHEMBL4689842.
